Provenance of the data: ChEMBL document CHEMBL4513216

# PROTOCOL TEXT: Toxicity liver stage against HepG2, at 10uM
# Type: cell-based
# Design: test concentration 10 uM, cell line HepG2-A16-CD81EGFP
# REPORTED CONDITIONS: human, HepG2-A16-CD81EGFP cells; read-out: INHIBITION
Recorded cytotoxicity at 10 µM values for a group of compounds are listed next.
TEST READOUT: cytotoxicity at 10 µM (%)

[
  {
    "COMPOUND": "CC(C)(C)c1nc(CC(=O)NC2CCN(C3CC3)C2)cs1 (centres undefined)",
    "UNIT SPEC": "%",
    "REPORTED VALUE": -9.25
  },
  {
    "COMPOUND": "Cc1ccccc1C1(C(=O)N2CCOC(C)C2)CCOCC1 (centres undefined)",
    "UNIT SPEC": "%",
    "REPORTED VALUE": 5.33
  },
  {
    "COMPOUND": "CCc1cn[nH]c1C1CCCN(C(=O)c2cc(C(C)C)on2)C1 (centres undefined)",
    "UNIT SPEC": "%",
    "REPORTED VALUE": -8.6
  },
  {
    "COMPOUND": "Cc1csc(C2(NCC(O)COc3ccc(F)cc3)CCC2)n1 (centres undefined)",
    "UNIT SPEC": "%",
    "REPORTED VALUE": 14.9
  },
  {
    "COMPOUND": "NC(=O)CN(Cc1ncc(-c2ccccc2)o1)C1CCCC1",
    "UNIT SPEC": "%",
    "REPORTED VALUE": -4.3
  },
  {
    "COMPOUND": "Cc1ccc(S(=O)(=O)NC(=O)c2cccc3c2OCCO3)c(C)c1",
    "UNIT SPEC": "%",
    "REPORTED VALUE": 3.25
  },
  {
    "COMPOUND": "Cc1ccc(CN2CCCC(c3cncc(C)n3)C2)cn1 (centres undefined)",
    "UNIT SPEC": "%",
    "REPORTED VALUE": -9.35
  },
  {
    "COMPOUND": "CC(C)[C@H]1COC(=O)N1Cc1nnc(-c2ccccc2)o1",
    "UNIT SPEC": "%",
    "REPORTED VALUE": 0.537
  },
  {
    "COMPOUND": "COc1cc(CNCc2c(C)nn(CC(C)C)c2N(C)C)ccn1",
    "UNIT SPEC": "%",
    "REPORTED VALUE": -9.3
  },
  {
    "COMPOUND": "Cc1cnn(CC2CCCCN2C(=O)CCCc2nc(C)no2)c1 (centres undefined)",
    "UNIT SPEC": "%",
    "REPORTED VALUE": 1.46
  },
  {
    "COMPOUND": "Cc1cnc(N2C(=O)CSC2c2ccccc2)s1 (centres undefined)",
    "UNIT SPEC": "%",
    "REPORTED VALUE": -1.14
  },
  {
    "COMPOUND": "Cc1noc(CN(C)CC2CCCN(CCc3ccc(Cl)cc3)C2)n1 (centres undefined)",
    "UNIT SPEC": "%",
    "REPORTED VALUE": 3.76
  },
  {
    "COMPOUND": "CC(C)c1nc2n(n1)CC(NCc1ncc(-c3ccccc3)o1)CC2 (centres undefined)",
    "UNIT SPEC": "%",
    "REPORTED VALUE": -0.361
  },
  {
    "COMPOUND": "O=C(O)c1cnc(N2CC[C@H](N3CCOCC3)[C@H](CCCO)C2)c(Cl)c1",
    "UNIT SPEC": "%",
    "REPORTED VALUE": 4.6
  },
  {
    "COMPOUND": "COc1cccc(C2CCCN2C(=O)CC2=CSC3=NCCCN23)c1 (centres undefined)",
    "UNIT SPEC": "%",
    "REPORTED VALUE": -0.277
  },
  {
    "COMPOUND": "c1cnnc(N2CCCC(NCc3ccncc3)C2)c1 (centres undefined)",
    "UNIT SPEC": "%",
    "REPORTED VALUE": -5.39
  },
  {
    "COMPOUND": "Cc1cnc(CN(Cc2ccc(C#N)cc2F)C2CCN(C)C2)o1 (centres undefined)",
    "UNIT SPEC": "%",
    "REPORTED VALUE": 0.172
  },
  {
    "COMPOUND": "CC1=N[C@@]2(CC[C@@H]3CN(CC(C)C)C[C@@H]32)C(=O)N1CC(C)C",
    "UNIT SPEC": "%",
    "REPORTED VALUE": -79.6
  },
  {
    "COMPOUND": "Cc1nccn1[C@@H]1CC[C@@H](NC(=O)Cn2c(C)nc3ccccc32)[C@H]1O",
    "UNIT SPEC": "%",
    "REPORTED VALUE": 2.41
  },
  {
    "COMPOUND": "O=C(c1ccc(C2CCCO2)s1)N1CCS(=O)(=O)CC1 (centres undefined)",
    "UNIT SPEC": "%",
    "REPORTED VALUE": -14.8
  },
  {
    "COMPOUND": "CC(C)c1ncc2c(n1)CN(CC(=O)Nc1ccncc1)CC2",
    "UNIT SPEC": "%",
    "REPORTED VALUE": -3.23
  },
  {
    "COMPOUND": "Cc1nnc(C2Cc3ccccc3CN2Cc2ncc(Cl)n2C)o1 (centres undefined)",
    "UNIT SPEC": "%",
    "REPORTED VALUE": 8.72
  },
  {
    "COMPOUND": "COCC(=O)N1CCN(C(C)=O)C[C@@H]1C(=O)OC",
    "UNIT SPEC": "%",
    "REPORTED VALUE": 2.43
  },
  {
    "COMPOUND": "CCc1csc(C2CCCN(C(=O)c3ccncc3)C2)n1 (centres undefined)",
    "UNIT SPEC": "%",
    "REPORTED VALUE": 5.9
  }
]
